# IC50 per record follows
TARGET UNDER TEST: FGF2 (Homo sapiens, UniProt P09038 P09038:135-288)
Sequence (P09038 135-288, one chain of several): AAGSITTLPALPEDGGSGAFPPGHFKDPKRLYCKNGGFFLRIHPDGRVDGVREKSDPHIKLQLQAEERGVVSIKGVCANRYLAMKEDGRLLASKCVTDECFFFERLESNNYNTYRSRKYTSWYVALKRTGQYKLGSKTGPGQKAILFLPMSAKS
PROCEDURE SUMMARY: cell_activity; HUVEC proliferation, FGF2 0.58 nM
ASSAY CONDITIONS: tags: Peprotech

- BINDER: "GGAUACUAGGGCAUUAAUGUUACCAGUGUAGUCC (ssRNA, 2'-F at U7,U15,U20,U27,U29; 2'-OH at G11,G26,G28; all others 2'-OMe; 3' idT) [aptamer ID 4]"
  IC50 / nM: 5
- BINDER: "GGGAUACUAGGGCAUUAAUGUUACCAGUGUAGUCCC (ssRNA, 2'-OMe at G1,G2,G3,A4,A9,G10,G11,A14,U15,U16,A17,A18,U19,G20,A23,A26; other C and U 2'-F; other purines 2'-OH) [aptamer ID 3(13)]"
  IC50 / nM: 15
- BINDER: "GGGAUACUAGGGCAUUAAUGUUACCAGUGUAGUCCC (ssRNA, 2'-F at U8,U16,U21,U28,U30; 2'-OH at G12,G27,G29; all others 2'-OMe; PS between U28 and G29) [aptamer ID 3(32)]"
  IC50 / nM: 4
- BINDER: "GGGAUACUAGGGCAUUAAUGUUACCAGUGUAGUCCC (ssRNA, 2'-F at U8,U16,U21,U28,G29,U30; 2'-OH at G12,G27; all others 2'-OMe) [aptamer ID 3(27)]"
  IC50 / nM: 3.7
- BINDER: "GGAUACUAGGGCAUUAAUGUUACCAGUGUAGUCC (ssRNA, 2'-F at U7,G11,U15,U20,G26,U27,U29; 2'-OH at G28; all others 2'-OMe; PS between G28 and U29; 3' idT) [aptamer ID 4(4)]"
  IC50 / nM: 4.5
- BINDER: "GGAUACUAGGGCAUUAAUGUUACCAGUGUAGUCC (ssRNA, 2'-F at U7,G11,U15,U20,U27,U29; 2'-OH at G26,G28; all others 2'-OMe; 3' idT) [aptamer ID 4(1)]"
  IC50 / nM: 3.8
- BINDER: "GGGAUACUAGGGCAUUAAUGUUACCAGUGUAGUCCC (ssRNA, 2'-F at U8,U16,U21,U28,U30; 2'-OH at G12,G27,G29; all others 2'-OMe; PS between G11 and G12) [aptamer ID 3(28)]"
  IC50 / nM: 4
- BINDER: "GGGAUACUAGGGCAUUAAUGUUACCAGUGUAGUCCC (ssRNA, 2'-F at U8,U16,U21,U28,U30; 2'-OH at G12,G27,G29; all others 2'-OMe; PS between A26 and G27) [aptamer ID 3(30)]"
  IC50 / nM: 3.3
- BINDER: "AGGGAUACUAGGGCAUUAAUGUUACCAGUGUAGUCCC (ssRNA, 2'-F at U9,U17,U22,U29,U31; 2'-OH at G13,G28,G30; all others 2'-OMe; 3' idT) [aptamer ID 6]"
  IC50 / nM: 3.1
- BINDER: "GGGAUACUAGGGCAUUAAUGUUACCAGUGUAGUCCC (ssRNA, 2'-F at U8,U16,U21,U28,U30; G12 DNA (2'-H); 2'-OH at G27,G29; all others 2'-OMe) [aptamer ID 3(23)]"
  IC50 / nM: 5.3
- BINDER: "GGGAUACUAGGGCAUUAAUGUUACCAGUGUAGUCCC (ssRNA, 2'-F at U8,U16,U21,U28,U30; G27 DNA (2'-H); 2'-OH at G12,G29; all others 2'-OMe) [aptamer ID 3(24)]"
  IC50 / nM: 7.3
- BINDER: "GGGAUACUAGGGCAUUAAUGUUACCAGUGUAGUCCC (ssRNA, 2'-F at U8,U16,U21,G27,U28,U30; 2'-OH at G12,G29; all others 2'-OMe) [aptamer ID 3(26)]"
  IC50 / nM: 3
- BINDER: "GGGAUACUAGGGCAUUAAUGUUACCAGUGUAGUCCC (ssRNA, 2'-OMe at G1,G2,G3,A4,A9,G10,G11,A14,A17,A18,G20,A23,A26,U33,C34,C35,C36; other C and U 2'-F; other purines 2'-OH; 3' idT) [aptamer ID 3(12)]"
  IC50 / nM: 21
- BINDER: "GGAUACUAGGGCAUUAAUGUUACCAGUGUAGUCC (ssRNA, 2'-F at U7,G11,U15,U20,U27,U29; 2'-OH at G26,G28; all others 2'-OMe; PS between U27 and G28; 3' idT) [aptamer ID 4(3)]"
  IC50 / nM: 4.6
